All values here come from ChEMBL document CHEMBL1201862.

test system: UACC-62; test: NCI tumour cell line growth inhibition, 48 h
Active and inactive are the calls of the source. No stated cut-off is given here; in the data, active = GI50 up to about 1.1 µM and inactive = higher.
Outcomes: active, inactive

>  <compound>
Cc1cc(N(CCC#N)CCC#N)ccc1/C=C1\N=C(c2cc([N+](=O)[O-])ccc2Cl)N(c2cccc(Cl)c2)C1=O

>  <experimental.target>
UACC-62

>  <category.label>
inactive

$$$$
>  <compound>
CC(=O)c1c2c(cc3c1CC1(C3)Cc3ccc4c(c3C1=O)CCC4)CCC2 (centres undefined)

>  <experimental.target>
UACC-62

>  <category.label>
inactive

$$$$
>  <compound>
C=C(C)C1CC[C@@](C)(O)[C@H](C#N)C1 (some centres undefined)

>  <experimental.target>
UACC-62

>  <category.label>
inactive

$$$$
>  <compound>
S=C(S)N1CCN(c2cccc(Cl)c2)CC1

>  <experimental.target>
UACC-62

>  <category.label>
inactive

$$$$
>  <compound>
Brc1cccc(Nc2ncnc3sc4c(c23)CCC2(C4)OCCO2)c1

>  <experimental.target>
UACC-62

>  <category.label>
inactive

$$$$
>  <compound>
Cc1c2ccncc2c(C)c2c1[nH]c1ccc(Cl)cc12

>  <experimental.target>
UACC-62

>  <category.label>
inactive

$$$$
>  <compound>
O=C(O)C1C2C=CC(O2)C1C(=O)NCc1cccnc1 (centres undefined)

>  <experimental.target>
UACC-62

>  <category.label>
inactive

$$$$
>  <compound>
CN(C)[C@@H]1C(O)=C(C(=O)NCNc2nc3[nH]nnc3c(=O)[nH]2)C(=O)[C@@]2(O)C(O)=C3C(=O)c4c(O)cccc4[C@@](C)(O)[C@H]3C[C@@H]12

>  <experimental.target>
UACC-62

>  <category.label>
active

$$$$
>  <compound>
COC(=O)CSc1ccccc1

>  <experimental.target>
UACC-62

>  <category.label>
inactive

$$$$
